Origin of the recorded values: paper PMC7156458

Reported Th-T fluorescence, mean of three wells by item:
system-name: Aβ42 (Homo sapiens, UniProt P05067)
Sequence (P05067 672-713): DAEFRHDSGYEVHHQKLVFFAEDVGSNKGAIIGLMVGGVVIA
protocol-details: Th-T (thioflavin-T) assay of Aβ42 aggregation
Format: biochemical
settings: Supplementary Fig. 47 source data; measurement M56 of time course

A selection of reference data follows.
{"compound": "C=C1CCC2C(C)(CC(=O)C=C(C)C)C(O)CCC2(C)C1Cc1c(OC)oc(CO)c(C)c1=O (stereo not shown)", "reported-property": "Th-T fluorescence, mean of three wells", "obs-value": 3.662}
{"compound": "C=C1CC[C@H]2[C@]3(C)C[C@H](C=C(C)C)O[C@H]3CC[C@]2(C)[C@@H]1Cc1c(OC)oc(CO)c(C)c1=O", "reported-property": "Th-T fluorescence, mean of three wells", "obs-value": 4.004}
{"compound": "C=C1CCC2C(C)(CC(=O)C=C(C)C)C(O)CCC2(C)C1Cc1c(O)c(C)c(C)oc1=O (stereo not shown)", "reported-property": "Th-T fluorescence, mean of three wells", "obs-value": 3.6022}

Enquiry: Would you kindly share the measured Th-T fluorescence, mean of three wells for C=C1CC[C@H]2[C@]3(C)C[C@H](C=C(C)C)O[C@H]3CC[C@]2(C)[C@@H]1Cc1c(OC)oc(C)c(C)c1=O ?
Return: 4.113

Enquiry: Here is the next compound: C=C1CC[C@@H]2[C@](C)(CC[C@H]3O[C@H](C=C(C)C)C[C@@]23C)[C@@H]1Cc1c(O)c(C)c(C)oc1=O
Return: 3.112

Enquiry: Here is the next compound: CC(C)=CCC/C(C)=C/CC/C(C)=C/CC/C(C)=C/Cc1c(O)c(C)c(C)oc1=O
Return: 2.914

Enquiry: Here is the next compound: C=C1CCC2C3(C)CC(C=C(C)C)OC3CCC2(C)C1Cc1c(OC)oc(C)c(C)c1=O (stereo not shown)
Return: 4.026

====

Reported Th-T fluorescence, mean of three wells by item:
system-name: Aβ42 (Homo sapiens, UniProt P05067)
protocol-details: Th-T (thioflavin-T) assay of Aβ42 aggregation
Format: biochemical
settings: compound at 20; reading M53 of time course

A selection of reference data follows.
{"molecule": "C=C1CCC2C(C)(CCC=C(C)C)C(O)CCC2(C)C1Cc1c(OC)oc(CO)c(C(=O)OC)c1=O (centres unmarked) [Compound 13]", "system-name": "Aβ42 (Homo sapiens, UniProt P05067)", "Th-T fluorescence, mean of three wells": 0.8004}
{"molecule": "C=C1CC[C@@H]2[C@](C)(CC[C@H]3O[C@H](C=C(C)C)C[C@@]23C)[C@@H]1Cc1c(OC)oc(CO)c(C)c1=O [Compound 20]", "system-name": "Aβ42 (Homo sapiens, UniProt P05067)", "Th-T fluorescence, mean of three wells": 3.442}
{"molecule": "C=C1CC[C@@H]2[C@](C)(CC[C@H]3O[C@H](C=C(C)C)C[C@@]23C)[C@@H]1Cc1c(OC)oc(CO)c(C(=O)OC)c1=O [Compound 21]", "system-name": "Aβ42 (Homo sapiens, UniProt P05067)", "Th-T fluorescence, mean of three wells": 0.2214}
{"molecule": "C=C1CCC2C(C)(CCC=C(C)C)C(O)CCC2(C)C1Cc1c(OC)oc(C)c(C(=O)OC)c1=O (centres unmarked) [Compound 14]", "system-name": "Aβ42 (Homo sapiens, UniProt P05067)", "Th-T fluorescence, mean of three wells": 2.161}

Enquiry: Would you kindly share the measured Th-T fluorescence, mean of three wells for C=C1CCC2C(C)(CCC=C(C)C)C(O)CCC2(C)C1Cc1c(OC)oc(CO)c(C)c1=O (centres unmarked) [Compound 12] ?
Return: 2.116

====

Reported Th-T fluorescence, mean of three wells by item:
system-name: UniProt P05067
protocol-details: Th-T (thioflavin-T) assay of Aβ42 aggregation
Type: biochemical
settings: Supplementary Fig. 47 source data; measurement M49 of time course
When you answer, write just the number.

A selection of reference data follows.
{"compound": "C=C1CC[C@H]2[C@]3(C)C[C@H](C=C(C)C)O[C@H]3CC[C@]2(C)[C@@H]1Cc1c(OC)oc(C)c(C)c1=O", "Th-T fluorescence, mean of three wells": 4.116}
{"compound": "C=C1CCC2C(C)(CC(=O)C=C(C)C)C(O)CCC2(C)C1Cc1c(O)c(C)c(C)oc1=O (stereo not drawn)", "Th-T fluorescence, mean of three wells": 3.594}
{"compound": "C=C1CC[C@H]2[C@]3(C)C[C@H](C=C(C)C)O[C@H]3CC[C@]2(C)[C@@H]1Cc1c(O)c(C)c(C)oc1=O", "Th-T fluorescence, mean of three wells": 3.11}
{"compound": "C=C1CCC2C(C)(CC(=O)C=C(C)C)C(O)CCC2(C)C1Cc1c(OC)oc(CO)c(C)c1=O (stereo not drawn)", "Th-T fluorescence, mean of three wells": 3.564}

Enquiry: Would you kindly share the measured Th-T fluorescence, mean of three wells for C=C1CC[C@H]2[C@]3(C)C[C@H](C=C(C)C)O[C@H]3CC[C@]2(C)[C@@H]1Cc1c(OC)oc(CO)c(C)c1=O ?
Return: 3.934

Enquiry: Here is the next compound: CC(C)=CCC/C(C)=C/CC/C(C)=C/CC/C(C)=C/Cc1c(O)c(C)c(C)oc1=O
Return: 2.883

====

system-name: Aβ42 (Homo sapiens, UniProt P05067)
protocol-details: Th-T (thioflavin-T) assay of Aβ42 aggregation
Format: biochemical
settings: measurement M2; source data, Ab alone and No Ab as controls
reported-property: Th-T assay plate reading, mean of three wells (Supplementary Fig. 47)
When you answer, write just the number.

A selection of reference data follows.
{"compound": "C=C1CCC2C(C)(CCC=C(C)C)C(O)CCC2(C)C1Cc1c(OC)oc(C)c(C)c1=O (stereo not shown) [Compound 11]", "obs-value": 0.2849}
{"compound": "C=C1CCC2C(C)(CCC=C(C)C)C(O)CCC2(C)C1Cc1c(OC)oc(CO)c(C(=O)OC)c1=O (stereo not shown)", "obs-value": 0.2393}
{"compound": "C=C1CC[C@@H]2[C@](C)(CC[C@H]3O[C@H](C=C(C)C)C[C@@]23C)[C@@H]1Cc1c(O)c(C)c(C)oc1=O", "obs-value": 0.2966}
{"compound": "C=C1CCC2C(C)(CC(=O)C=C(C)C)C(O)CCC2(C)C1Cc1c(OC)oc(C)c(C)c1=O (stereo not shown)", "obs-value": 0.2276}
{"compound": "C=C1CCC2C(C)(CCC=C(C)C)C(O)CCC2(C)C1Cc1c(OC)oc(C)c(C(=O)OC)c1=O (stereo not shown)", "obs-value": 0.2424}
{"compound": "C=C1CCC2C(C)(CCC=C(C)C)C(O)CCC2(C)C1Cc1c(O)c(C)c(C)oc1=O (stereo not shown) [Compound 4]", "obs-value": 0.3159}

We next turn to a different compound, shown below.
Enquiry: Would you kindly share the measured Th-T assay plate reading, mean of three wells (Supplementary Fig. 47) for C=C1CC[C@H]2[C@]3(C)C[C@H](C=C(C)C)O[C@H]3CC[C@]2(C)[C@@H]1Cc1c(OC)oc(CO)c(C)c1=O ?
Return: 0.2169

====

system-name: Aβ42 (Homo sapiens)
protocol-details: Th-T (thioflavin-T) assay of Aβ42 aggregation
Assay type: biochemical
settings: column suffix _50; reading M16
If the reported Th-T assay signal, mean of three wells (Fig. 7a) equals or exceeds 2, assign rule met. If not, assign rule not met.

{"molecule": "C=C1CCC2C(C)(CCC=C(C)C)C(O)CCC2(C)C1Cc1c(OC)oc(CO)c(C)c1=O (centres unmarked)", "class-label": "rule not met"}
{"molecule": "C=C1CCC2C(C)(CCC=C(C)C)C(O)CCC2(C)C1Cc1c(OC)oc(C)c(C(=O)OC)c1=O (centres unmarked)", "class-label": "rule not met"}
{"molecule": "C=C1CCC2C(C)(CCC=C(C)C)C(O)CCC2(C)C1Cc1c(OC)oc(CO)c(C(=O)OC)c1=O (centres unmarked)", "class-label": "rule not met"}

Enquiry: Does C=C1CC[C@@H]2[C@](C)(CC[C@H]3O[C@H](C=C(C)C)C[C@@]23C)[C@@H]1Cc1c(OC)oc(CO)c(C(=O)OC)c1=O have a reported Th-T assay signal, mean of three wells (Fig. 7a) of at least 2?
Return: rule not met

Enquiry: Here is the next molecule: C=C1CC[C@@H]2[C@](C)(CC[C@H]3O[C@H](C=C(C)C)C[C@@]23C)[C@@H]1Cc1c(OC)oc(CO)c(C)c1=O
Return: rule met

====

Tested on: l(2)mbn cells
protocol-details: cytotoxicity in Drosophila l(2)mbn cells
Assay type: cell-based
settings: read-out: IC50 Average, cytotoxicity, average of two replicates
reported-property: IC50 (µM)
Numbers only here, please. The scale is µM.

Enquiry: Would you kindly share the measured IC50 for C=C1CCC2C(C)(CCC=C(C)C)C(O)CCC2(C)C1Cc1c(OC)oc(C)c(C)c1=O (stereo not shown) [Compound 15, viridoxin A hydrolysate] ?
Return: 5.23
